Target: T1, human CD24 on cells (human, UniProt P25063 27-59)
T1 chain (looked up): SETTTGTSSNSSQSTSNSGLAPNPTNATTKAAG
Assay: cell-based or functional assay
measuredQuantity: EC50 of Phagocytosis assay, IgG1, Kappa; MCF-7 (µg/mL)
Give just the number in µg/mL; leave the unit off.

See these solved cases before continuing.
[[record]]
binder = "80-F10A6, IgG1, Kappa (antibody, V domains shown) VH: EVQLQQSGPVLVNPGASVKISCKASGYSFTGYYMNWVKQSPEKSLEWIGEVNPITGDTTYSQNFKAKTTLTVDRSSSTAYMQLKSLTSEDSAVYYCTRRDYGTSLDYWGQGTTLTVSS VL: DVQITQSPSYLAASPGETITIHCRASKSISRYLAWYQEKPGKINTLLIYAGSTLHLGIPSRFSGSGSGTDFTLTISSLELEDFAMYYCQQHNEYPITFGAGTKLELK"
uom = "µg/mL"
recordednumber = 0.57

[[record]]
binder = "59-G9D7, IgG1, Kappa (antibody, V domains shown) VH: QVQLQQPGADLVKPGASVKLSCKASGYTVTTYWMHWVRQRPGRGLEWIGRIDPNSGETKYSEKFKNKATLTVDRPSSTAYMQLSSLTFEDSAVYFCAIYYYLNNFLFDYWGQGTTLTVSS VL: ENVLTQSPAIMSASPGEKVTMTCRASSSVSSSYLHWYQKKSGASPKLWIYSTSNLASGVPARFSGSGSGTSYSLTISSVEAEDAATYYCQQYSGYPLTFGAGTKLELK"
uom = "µg/mL"
recordednumber = 2.05


Moving on to the next binder.
For the binder 89-E8C12 (4428), IgG1, Kappa (antibody, V domains shown) VH: EVQLQQSGPELVKPGASVKISCKASGYDFTGYYMNWMKQSPEKSLEWIGEINPITSHNTFNQKFKAKATLTVDRSSSTAYMHLKSLTSEDSAVYYCARRDYGTSLDYWGQGTTLTVSS VL: DVQITQSPSYLAASPGETITIYCRASKSISKYLAWYQEKPEKTIRLLIYAGSTLQSGIPSRFRGSGSGTDFTLTVSGLEPEDFAMYYCQQHNEYPLTFGAGTKLELK , give its reported EC50 of Phagocytosis assay, IgG1, Kappa; MCF-7.
0.33
